Can you tell me Ki for the items I'm about to list?
tested.on: HCV NS3 protease domain (Hepatitis C virus genotype 1b, UniProt Q9WMX2)
Construct: The first 181 amino acids of NS3 (residues 1027-1207 of the viral polyprotein); hexa-histidine (C); made in house; host or cells: E. coli BL21/DE3 pLysS
experiment.notes: biochemical
test.parameters: Enzyme Assay 1 (HCV NS3 Protease Domain Peptide Cleavage Assay) activity, apparent Ki class

Ask: Can you look up the measured Ki of CCC[C@H](NC(=O)[C@@H]1C[C@]2(CC(c3ccc(C(=O)O)cc3)=NO2)CN1C(=O)[C@@H](NC(=O)O[C@H]1CCOC1)C(C)(C)C)C(=O)C(=O)NC1CC1 [Compound 543] for me?
Result: > 500 nM

Ask: Given the compound CCC[C@H](NC(=O)[C@@H]1C[C@]2(CC(c3ccccc3)=NO2)CN1C(=O)[C@@H](NC(=O)NCC1CCCCC1)C(C)(C)C)C(=O)C(=O)NC1CC1 [Compound 249] , what is its reported Ki?
Result: 100 to 500 nM

Ask: Can you look up the measured Ki of CCC[C@H](NC(=O)[C@@H]1C[C@]2(CC(c3cccc(Cl)c3)=NO2)CN1C(=O)[C@@H](NC(=O)CC1CCOCC1)C1CCCCC1)C(=O)C(=O)NC1CC1 [Compound 37] for me?
Result: > 500 nM

Ask: May I ask what Ki has been recorded for CCC[C@H](NC(=O)[C@@H]1C[C@]2(CC(c3cccc(Cl)c3)=NO2)CN1C(=O)[C@@H](NC(=O)OCc1cccnc1C)C(C)(C)C)C(=O)C(=O)NC1CC1 [Compound 167] ?
Result: 100 to 500 nM

Ask: # Ki lookup, item CCC[C@H](NC(=O)[C@@H]1C[C@]2(CC(c3cccc(Cl)c3)=NO2)CN1C(=O)[C@@H](NC(=O)CC1CCCCC1)C(C)(C)C)C(=O)C(=O)NCCc1cccc(OC)c1 [Compound 540]
Result: 100 to 500 nM

----------
tested.on: full-length hepatitis C viral protein NS3•4A (Hepatitis C virus genotype 1a, UniProt P27958)
Construct: hexa-histidine (N); made in house; host or cells: Sf9 insect cells (baculovirus, pVL1392)
experiment.notes: biochemical
Parameters: species or system HCV sub-type strain 1a
test.parameters: Enzyme Assay 2 (HCV NS3 Peptide Cleavage Assay) activity, apparent Ki class
Can you tell me Ki for the items I'm about to list?

Ask: Value lookup for Ki; key = CCC[C@H](NC(=O)[C@@H]1C[C@]2(CC(c3cc(Cl)c(OC)cc3C)=NO2)CN1C(=O)[C@@H](NC(=O)CC(C)(C)C)C(C)(C)C)C(=O)C(=O)NC
Result: 100 to 500 nM

Ask: Sample CCC[C@H](NC(=O)[C@@H]1C[C@]2(CC(c3cccc4cccnc34)=NO2)CN1C(=O)[C@@H](NC(=O)CC1CCCCCC1)C(C)(C)C)C(=O)C(=O)NC — what was its Ki?
Result: 100 to 500 nM

Ask: Dear colleague, I am looking for the recorded Ki of the following compound: CCC[C@H](NC(=O)[C@@H]1C[C@]2(CC(c3cccc(Cl)c3)=NO2)CN1C(=O)[C@@H](NC(=O)CC1CCCCC1)C(C)(C)C)C(=O)C(=O)NC(CC)CC
Result: 100 to 500 nM

Ask: Quick one: Ki for CCC[C@H](NC(=O)[C@@H]1C[C@]2(CC(c3cccc(Cl)c3)=NO2)CN1C(=O)[C@@H](NC(=O)CC1CCCCC1)C(C)(C)C)C(=O)C(=O)N1CCC1 ?
Result: < 100 nM

Ask: What value of measured Ki is listed for CCC[C@H](NC(=O)[C@@H]1C[C@]2(CC(c3cc(C)cc(Cl)c3)=NO2)CN1C(=O)[C@@H](NC(=O)CC1CCCCC1)C(C)(C)C)C(=O)C(=O)NC1CC1 ?
Result: < 100 nM

----------
tested.on: full-length hepatitis C viral protein NS3•4A (Hepatitis C virus genotype 1a, UniProt P27958)
Construct: hexa-histidine (N); made in house; host or cells: Sf9 insect cells (baculovirus, pVL1392)
experiment.notes: biochemical
Parameters: species or system HCV sub-type strain 1a
test.parameters: Enzyme Assay 2 (HCV NS3 Peptide Cleavage Assay) activity, apparent Ki class
pKi: −log10 of the molar value.
Can you tell me pKi for the items I'm about to list?

Ask: Requested read-out: pKi. Entry: CCC[C@H](NC(=O)[C@@H]1C[C@]2(CC(c3cccc(Cl)c3)=NO2)CN1C(=O)[C@@H](NC(=O)CC1CCCCC1)C(C)(C)C)C(=O)C(=O)Nc1cccc(NS(C)(=O)=O)c1
Result: < 6.30

Ask: # pKi lookup, item CCC[C@H](NC(=O)[C@@H]1C[C@]2(CC(c3cccc(Cl)c3)=NO2)CN1C(=O)[C@@H](NC(=O)CC1CCCCC1)C(C)(C)C)C(=O)C(=O)N[C@H](C)CC
Result: 6.30 to 7.00

Ask: Which pKi is reported for this compound? CCC[C@H](NC(=O)[C@@H]1C[C@]2(CC(c3cccc(Cl)c3)=NO2)CN1C(=O)[C@@H](NC(=O)CC1CCCCC1)C(C)(C)C)C(=O)C(=O)NCc1cccnc1
Result: 6.30 to 7.00

----------
tested.on: HCV NS3 protease domain (Hepatitis C virus genotype 1b, UniProt Q9WMX2)
Construct: The first 181 amino acids of NS3 (residues 1027-1207 of the viral polyprotein); hexa-histidine (C); made in house; host or cells: E. coli BL21/DE3 pLysS
experiment.notes: biochemical
test.parameters: Enzyme Assay 1 (HCV NS3 Protease Domain Peptide Cleavage Assay) activity, apparent Ki class
parameter.measured: Ki

Ask: Test system HCV NS3 protease domain (Hepatitis C virus genotype 1b, UniProt Q9WMX2); read-out Ki; what value for CCC[C@H](NC(=O)[C@@H]1C[C@]2(CC(c3cccc(Cl)c3)=NO2)CN1C(=O)[C@@H](NC(=O)C1CCCCC1)C(C)(C)C)C(=O)C(=O)NC1CC1 [Compound 93] ?
Result: 0.1 to 0.5 µM

Ask: // map CCC[C@H](NC(=O)[C@@H]1C[C@]2(CC(c3cccc(Cl)c3)=NO2)CN1C(=O)[C@@H](NC(=O)CC1CCCCC1)C(C)OC)C(=O)C(=O)NC1CC1 (some centres unmarked) [Compound 124] to recorded Ki (system: HCV NS3 protease domain (Hepatitis C virus genotype 1b, UniProt Q9WMX2))
Result: > 0.5 µM

Ask: Lab request: please report Ki under test system HCV NS3 protease domain (Hepatitis C virus genotype 1b, UniProt Q9WMX2) for CCC[C@H](NC(=O)[C@@H]1C[C@]2(CC(c3cccc(Cl)c3)=NO2)CN1C(=O)[C@H](Cc1ccccc1F)NC(=O)CC1CCCCC1)C(=O)C(=O)NC1CC1 [Compound 338]
Result: > 0.5 µM

Ask: Provide value of Ki for this record tested with HCV NS3 protease domain (Hepatitis C virus genotype 1b, UniProt Q9WMX2): C#CC[C@H](C(=O)N[C@H](C(=O)N1C[C@@]2(CC(c3cccc(Cl)c3)=NO2)C[C@H]1C(=O)N[C@@H](CCC)C(=O)C(=O)NC1CC1)C(C)(C)C)C1CCCCC1 [Compound 266]
Result: 0.1 to 0.5 µM

Ask: Give HCV NS3 protease domain (Hepatitis C virus genotype 1b, UniProt Q9WMX2) Ki for CCC[C@H](NC(=O)[C@@H]1C[C@]2(CC(c3cccc(Cl)c3)=NO2)CN1C(=O)C1(C(N)=O)CC1)C(=O)C(=O)NC1CC1 [Compound 227]
Result: > 0.5 µM

----------
tested.on: full-length hepatitis C viral protein NS3•4A (Hepatitis C virus genotype 1a)
Construct: hexa-histidine (N); made in house; host or cells: Sf9 insect cells (baculovirus, pVL1392)
experiment.notes: biochemical
Set-up: species or system HCV sub-type strain 1a
test.parameters: Enzyme Assay 2 (HCV NS3 Peptide Cleavage Assay) activity, apparent Ki class
Would you mind telling me the reported Ki of each entry?

Ask: Given the entry COc1cc(OC)c(C2=NO[C@]3(C2)C[C@@H](C(=O)N[C@@H](CC2CC2)C(=O)C(N)=O)N(C(=O)[C@@H](NC(=O)CC2CCCCC2)C(C)(C)C)C3)cc1Cl , report its measured Ki.
Result: < 100 nM

Ask: Quick one: Ki of CCC[C@H](NC(=O)[C@@H]1C[C@]2(CC(c3cccc(Cl)c3)=NO2)CN1C(=O)[C@@H](NC(=O)OC1CCCCCC1)C(C)(C)C)C(=O)C(=O)NC1CC1 ?
Result: < 100 nM

Ask: Give its Ki value. Item: CCC[C@H](NC(=O)[C@@H]1CC2(CC(c3cccc(Cl)c3)=NO2)CN1C(=O)[C@H](Cc1ccc(O)cc1)NC(C)=O)C(=O)C(=O)NC1CC1 (some centres unmarked)
Result: 100 to 500 nM

Ask: Could you share which Ki value was measured for CC(C)(C)OC(=O)N[C@H]1CCCCC/C=C\[C@@H]2C[C@@]2(C(=O)O)NC(=O)[C@@H]2C[C@]3(CC(C(=O)c4ccccc4)=NO3)CN2C1=O ?
Result: > 500 nM

Ask: For the compound shown here, CCC[C@H](NC(=O)[C@@H]1C[C@]2(CC(c3ccc(C#N)cc3)=NO2)CN1C(=O)[C@@H](NC(=O)CC1CCOCC1)C(C)(C)C)C(=O)C(=O)NC1CC1 , give the reported Ki.
Result: 100 to 500 nM
